Biological target: T1, P3A-bA
T1 chain: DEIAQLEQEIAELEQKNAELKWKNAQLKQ
Assay: two-hybrid library CCNG1;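 also: natural log of median RNA to DNA barcode read ratio; higher means stronger binding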
REPORTED METRIC: interaction score

>  <BINDER>
DEIAQLEQEIAELEQKNAELKWKNAQLKQ [P3A-bA]

>  <interaction score>
-1.07

$$$$
>  <BINDER>
DKNAQLKQKIAELKQKIAELKWENAQLEQ [P12A-bA]

>  <interaction score>
0.536

$$$$

Return reported interaction score; argument: DEIAQLEQENAELEQENAELEWEIAQLEQ [P1A-bA]
-1.12
